tested on: L1210 leukemia ip in BDF1 mice, survival T/C; experiment: NCI In Vivo Anticancer Drug Screen. Data for tumor model L1210 Leukemia (intraperitoneal) in B6D2F1 (BDF1) mice; conditions: endpoint: mean survival time; dose: 400.0 mg/kg/injection; schedule: Q01DX001 (ip); vehicle: Klucel (hydroxypropylcellulose) (HPC); higher = longer survival
Toxic doses and inconclusive results are not listed.
parameter: T/C

[in] Recorded T/C for `O=[N+]([O-])c1ccc(/C=C/c2ccc(S(=O)(=O)F)cc2Cl)c(Cl)c1` , please?
[out] 93 % of control

Others:
[in] Recorded T/C for `CCCCCCc1c(C)nc(N)[nH]c1=O` , please?
[out] 92 % of control

[in] Now the compound `O=C(Nc1ccc(F)cc1)OCCc1ccccn1`
[out] 91 % of control

[in] Now the compound `CCOC(=S)c1ccc(S(=O)(=O)NC)cc1`
[out] 110 % of control

[in] Now the compound `CN(C)C(=S)SCCOc1ccc(Cl)cc1Cl`
[out] 104 % of control

[in] Now the compound `CCCNS(=O)(=O)c1ccc(C(=S)OCC)cc1`
[out] 94 % of control

[in] Now the compound `CCCCNC(=O)NS(=O)(=O)c1ccc(C)cc1`
[out] 89 % of control
